Source: paper PMC6278537

- ASSAY NAME: Pharmacokinetic study in rats after single oral administration of S. officinalis extract (UHPLC-MS/MS of plasma)
- Assay type: in vivo, Sprague-Dawley rats
- ASSAY CONTEXT: male, Sprague-Dawley; rat plasma, single oral dose of S. officinalis extract 0.015 g/kg, n = 12, mean ± SD
MEASURED METRIC: half-life (h)

[[record]]
compound = "C[C@@H]1CC[C@]2(C(=O)O[C@@H]3O[C@H](CO)[C@@H](O)[C@H](O)[C@H]3O)CC[C@]3(C)C(=CC[C@@H]4[C@@]5(C)CC[C@H](O[C@@H]6OC[C@H](O)[C@H](O)[C@H]6O)C(C)(C)[C@@H]5CC[C@]43C)[C@@H]2[C@]1(C)O [I, ziyuglycoside I]"
measured_result = 11.6

[[record]]
compound = "C[C@@H]1CC[C@]2(C(=O)O[C@@H]3O[C@H](CO)[C@@H](O)[C@H](O)[C@H]3O)CC[C@]3(C)C(=CC[C@@H]4[C@@]5(C)C[C@@H](O)[C@H](O)C(C)(C)[C@@H]5CC[C@]43C)[C@@H]2[C@]1(C)O"
measured_result = 7.32

[[record]]
compound = "CC1=C2C3=CCC4C5(C)CCC(OC6OCC(O)C(O)C6O)C(C)(C)C5CCC4(C)C3(C)CCC2(C(=O)OC2OC(CO)C(O)C(O)C2O)CCC1C (stereo not drawn)"
measured_result = 6.86

[[record]]
compound = "C=C1[C@H]2C3=CC[C@@H]4[C@@]5(C)C[C@@H](O)[C@@H](O)C(C)(C)[C@@H]5CC[C@@]4(C)[C@]3(C)CC[C@@]2(C(=O)O[C@@H]2O[C@H](CO)[C@@H](O)[C@H](O)[C@H]2O)CC[C@H]1C [VI, alpinoside]"
measured_result = 7.72

[[record]]
compound = "CC1CCC2(C(=O)O)CCC3(C)C(=CCC4C5(C)C(O)C(O)C(O)C(C)(C)C5CCC43C)C2C1(C)O (stereo not drawn) [V, 1β-hydroxyeuscaphic acid]"
measured_result = 7.35

[[record]]
compound = "CC1CCC2(C(=O)OC3OC(CO)C(O)C(O)C3O)CCC3(C)C(=CCC4C5(C)CCC(O)C(C)(C)C5CCC43C)C2C1(C)O (stereo not drawn)"
measured_result = 8.99


----------
- ASSAY NAME: Stability of analytes in rat plasma under various storage conditions
- Format: in vitro ADME
- ASSAY CONTEXT: 12 h after sample preparation at 4 °C, high QC spiked concentration
- Procedure: The stability of six analytes in rat plasma was estimated under different storage conditions. […] Post-preparative stability of analytes also implied that there was no obvious degradation when samples were kept at 4 °C for 12 h. In addition, all compounds remained stable for two weeks at […]. […]
MEASURED METRIC: Stability Post-Preparation (% RE)

Reference set (4 entries):
[[record]]
molecule = "C[C@@H]1CC[C@]2(C(=O)O[C@@H]3O[C@H](CO)[C@@H](O)[C@H](O)[C@H]3O)CC[C@]3(C)C(=CC[C@@H]4[C@@]5(C)CC[C@H](O[C@@H]6OC[C@H](O)[C@H](O)[C@H]6O)C(C)(C)[C@@H]5CC[C@]43C)[C@@H]2[C@]1(C)O [I, ziyuglycoside I]"
measured_metric = "Stability Post-Preparation"
unit_text = "% RE"
measured_result = "−9.95"

[[record]]
molecule = "CC1=C2C3=CCC4C5(C)CCC(OC6OCC(O)C(O)C6O)C(C)(C)C5CCC4(C)C3(C)CCC2(C(=O)OC2OC(CO)C(O)C(O)C2O)CCC1C (stereo not drawn)"
measured_metric = "Stability Post-Preparation"
unit_text = "% RE"
measured_result = 1.10

[[record]]
molecule = "C=C1[C@H]2C3=CC[C@@H]4[C@@]5(C)C[C@@H](O)[C@@H](O)C(C)(C)[C@@H]5CC[C@@]4(C)[C@]3(C)CC[C@@]2(C(=O)O[C@@H]2O[C@H](CO)[C@@H](O)[C@H](O)[C@H]2O)CC[C@H]1C [VI, alpinoside]"
measured_metric = "Stability Post-Preparation"
unit_text = "% RE"
measured_result = 4.85

[[record]]
molecule = "C[C@@H]1CC[C@]2(C(=O)O[C@@H]3O[C@H](CO)[C@@H](O)[C@H](O)[C@H]3O)CC[C@]3(C)C(=CC[C@@H]4[C@@]5(C)C[C@@H](O)[C@H](O)C(C)(C)[C@@H]5CC[C@]43C)[C@@H]2[C@]1(C)O"
measured_metric = "Stability Post-Preparation"
unit_text = "% RE"
measured_result = 3.95


A = CC1CCC2(C(=O)O)CCC3(C)C(=CCC4C5(C)C(O)C(O)C(O)C(C)(C)C5CCC43C)C2C1(C)O (stereo not drawn) [V, 1β-hydroxyeuscaphic acid]
B = CC1CCC2(C(=O)OC3OC(CO)C(O)C(O)C3O)CCC3(C)C(=CCC4C5(C)CCC(O)C(C)(C)C5CCC43C)C2C1(C)O (stereo not drawn)
Please indicate which item has the smaller measured Stability Post-Preparation: A versus B Use the label to indicate which entry you chose.
A

----------
- ASSAY NAME: Stability of analytes in rat plasma under various storage conditions
- Format: in vitro ADME
- ASSAY CONTEXT: 12 h after sample preparation at 4 °C, medium QC spiked concentration
MEASURED METRIC: Stability Post-Preparation (% RE)

a = C[C@@H]1CC[C@]2(C(=O)O[C@@H]3O[C@H](CO)[C@@H](O)[C@H](O)[C@H]3O)CC[C@]3(C)C(=CC[C@@H]4[C@@]5(C)C[C@@H](O)[C@H](O)C(C)(C)[C@@H]5CC[C@]43C)[C@@H]2[C@]1(C)O
b = C[C@@H]1CC[C@]2(C(=O)O[C@@H]3O[C@H](CO)[C@@H](O)[C@H](O)[C@H]3O)CC[C@]3(C)C(=CC[C@@H]4[C@@]5(C)CC[C@H](O[C@@H]6OC[C@H](O)[C@H](O)[C@H]6O)C(C)(C)[C@@H]5CC[C@]43C)[C@@H]2[C@]1(C)O [I, ziyuglycoside I]
For the pair a and b , which member has the lower Stability Post-Preparation number? Write the label of whichever entry you select.
a

----------
- ASSAY NAME: Pharmacokinetic study in rats after single oral administration of S. officinalis extract (UHPLC-MS/MS of plasma)
- Type: in vivo, Sprague-Dawley rats
- ASSAY CONTEXT: rat plasma, single oral dose of S. officinalis extract 0.015 g/kg, n = 12, mean ± SD
MEASURED METRIC: Cmax (ng/mL)

[[record]]
molecule = "C[C@@H]1CC[C@]2(C(=O)O[C@@H]3O[C@H](CO)[C@@H](O)[C@H](O)[C@H]3O)CC[C@]3(C)C(=CC[C@@H]4[C@@]5(C)CC[C@H](O[C@@H]6OC[C@H](O)[C@H](O)[C@H]6O)C(C)(C)[C@@H]5CC[C@]43C)[C@@H]2[C@]1(C)O [I, ziyuglycoside I]"
measured_result = 744.7

[[record]]
molecule = "C=C1[C@H]2C3=CC[C@@H]4[C@@]5(C)C[C@@H](O)[C@@H](O)C(C)(C)[C@@H]5CC[C@@]4(C)[C@]3(C)CC[C@@]2(C(=O)O[C@@H]2O[C@H](CO)[C@@H](O)[C@H](O)[C@H]2O)CC[C@H]1C [VI, alpinoside]"
measured_result = 243.2

[[record]]
molecule = "CC1CCC2(C(=O)OC3OC(CO)C(O)C(O)C3O)CCC3(C)C(=CCC4C5(C)CCC(O)C(C)(C)C5CCC43C)C2C1(C)O (stereo not drawn) [II]"
measured_result = 526.6

[[record]]
molecule = "CC1=C2C3=CCC4C5(C)CCC(OC6OCC(O)C(O)C6O)C(C)(C)C5CCC4(C)C3(C)CCC2(C(=O)OC2OC(CO)C(O)C(O)C2O)CCC1C (stereo not drawn) [III]"
measured_result = 317.9


a = CC1CCC2(C(=O)O)CCC3(C)C(=CCC4C5(C)C(O)C(O)C(O)C(C)(C)C5CCC43C)C2C1(C)O (stereo not drawn) [V, 1β-hydroxyeuscaphic acid]
b = C[C@@H]1CC[C@]2(C(=O)O[C@@H]3O[C@H](CO)[C@@H](O)[C@H](O)[C@H]3O)CC[C@]3(C)C(=CC[C@@H]4[C@@]5(C)C[C@@H](O)[C@H](O)C(C)(C)[C@@H]5CC[C@]43C)[C@@H]2[C@]1(C)O [IV, rosamultin]
// select label with min value of measured Cmax from [ a , b ] Answer with the label corresponding to your selection.
a

----------
- ASSAY NAME: Stability of analytes in rat plasma under various storage conditions
- Assay type: in vitro ADME
- ASSAY CONTEXT: rat plasma, room temperature 4 h, low QC spiked concentration
MEASURED METRIC: Stability Short-Term (% RE)

Some molecules with recorded Stability Short-Term:
[[record]]
molecule = "CC1CCC2(C(=O)O)CCC3(C)C(=CCC4C5(C)C(O)C(O)C(O)C(C)(C)C5CCC43C)C2C1(C)O (stereo not drawn) [V, 1β-hydroxyeuscaphic acid]"
measured_result = "−4.77"

[[record]]
molecule = "C[C@@H]1CC[C@]2(C(=O)O[C@@H]3O[C@H](CO)[C@@H](O)[C@H](O)[C@H]3O)CC[C@]3(C)C(=CC[C@@H]4[C@@]5(C)CC[C@H](O[C@@H]6OC[C@H](O)[C@H](O)[C@H]6O)C(C)(C)[C@@H]5CC[C@]43C)[C@@H]2[C@]1(C)O [I, ziyuglycoside I]"
measured_result = 4.27

[[record]]
molecule = "C=C1[C@H]2C3=CC[C@@H]4[C@@]5(C)C[C@@H](O)[C@@H](O)C(C)(C)[C@@H]5CC[C@@]4(C)[C@]3(C)CC[C@@]2(C(=O)O[C@@H]2O[C@H](CO)[C@@H](O)[C@H](O)[C@H]2O)CC[C@H]1C [VI, alpinoside]"
measured_result = "−10.78"

[[record]]
molecule = "CC1CCC2(C(=O)OC3OC(CO)C(O)C(O)C3O)CCC3(C)C(=CCC4C5(C)CCC(O)C(C)(C)C5CCC43C)C2C1(C)O (stereo not drawn)"
measured_result = "−5.94"


a = C[C@@H]1CC[C@]2(C(=O)O[C@@H]3O[C@H](CO)[C@@H](O)[C@H](O)[C@H]3O)CC[C@]3(C)C(=CC[C@@H]4[C@@]5(C)C[C@@H](O)[C@H](O)C(C)(C)[C@@H]5CC[C@]43C)[C@@H]2[C@]1(C)O
b = CC1=C2C3=CCC4C5(C)CCC(OC6OCC(O)C(O)C6O)C(C)(C)C5CCC4(C)C3(C)CCC2(C(=O)OC2OC(CO)C(O)C(O)C2O)CCC1C (stereo not drawn)
For a and b , which recorded Stability Short-Term is lower? Selection: enter the item's label.
b
(b: −5.54 % RE, a: 9.63 % RE)
